# EXPERIMENTAL_TARGET: BACE2 (Mus musculus, UniProt Q9JL18)
# Construct: endogenous in cells; host or cells: MIN6 mouse insulinoma cells expressing Flag-V5-TMEM27-HA
# Sequence (Q9JL18 63-514): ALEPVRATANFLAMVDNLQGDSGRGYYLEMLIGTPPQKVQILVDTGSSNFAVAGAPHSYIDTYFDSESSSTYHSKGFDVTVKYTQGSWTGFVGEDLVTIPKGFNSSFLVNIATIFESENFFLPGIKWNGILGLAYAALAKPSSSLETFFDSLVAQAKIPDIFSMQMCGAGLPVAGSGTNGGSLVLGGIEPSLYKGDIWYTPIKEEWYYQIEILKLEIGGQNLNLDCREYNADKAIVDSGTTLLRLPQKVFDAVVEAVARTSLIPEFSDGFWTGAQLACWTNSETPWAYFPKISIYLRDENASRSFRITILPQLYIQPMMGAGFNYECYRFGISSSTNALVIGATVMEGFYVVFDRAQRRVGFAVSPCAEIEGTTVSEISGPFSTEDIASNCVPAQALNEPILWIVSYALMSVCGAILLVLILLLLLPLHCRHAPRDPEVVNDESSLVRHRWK
# EXPERIMENT_DESCRIPTION: BACE2 cellular assay in MIN6 cells, secreted TMEM27 (Test Example 2-5)
# Assay type: cell-based
# EXPERIMENTAL_CONDITIONS: 24 hours incubation, secreted TMEM27 by MSD, read-out: Cellular MSD assay in Min6 cells TV1EV127 pIC50 (converted)
MEASURE: IC50 (nM)

INSERT INTO measurements (compound, test_result) VALUES
  ('CCS(=O)(=O)[C@]1(C)CC[C@@](CF)(c2cc(NC(=O)c3cc4c(cn3)OC(F)(F)O4)ccc2F)N=C1N', 309);

a = [2H]C1([2H])Oc2cnc(C(=O)Nc3ccc(F)c([C@]4(CF)CC[C@@](C)(S(C)(=O)=O)C(N)=N4)c3)cc2OC1([2H])[2H] [II-3]
b = CC1(S(C)(=O)=O)CCC(CF)(c2cc(NC(=O)c3ncc4c(n3)OCCO4)cc(F)c2F)N=C1N (stereo not drawn)
Consider entries a and b . Which has the numerically lower IC50? Give the label under which the chosen entry appears.
a
